Please provide measured MIC for the entries that follow.
# Test system: Staphylococcus aureus
# procedure-text: Antibacterial activity against vancomycin-intermediate Staphylococcus aureus Mu50 after 24 hrs by microdilution method
# Format: functional
# condition-context: Mu50, 24 h

O=C(CCCc1ccc(F)cc1)OC[C@H]1O[C@@H](Oc2c(-c3ccc(O)c(O)c3)oc3cc(O)cc(O)c3c2=O)[C@H](OC(=O)CCCc2ccc(F)cc2)[C@@H](O)[C@H]1O = 4 µg/mL
CCOc1ccc(C(=O)OC[C@H]2O[C@@H](Oc3c(-c4ccc(O)c(O)c4)oc4cc(O)cc(O)c4c3=O)[C@H](OC(=O)c3ccc(OCC)cc3)[C@@H](O)[C@H]2O)cc1 = 4 µg/mL
CCCc1ccc(C(=O)OC[C@H]2O[C@@H](Oc3c(-c4ccc(O)c(O)c4)oc4cc(O)cc(O)c4c3=O)[C@H](OC(=O)c3ccc(CCC)cc3)[C@@H](O)[C@H]2O)cc1 = 4 µg/mL
O=c1c(O[C@@H]2O[C@H](CO)[C@H](O)[C@H](O)[C@H]2O)c(-c2ccc(O)c(O)c2)oc2cc(O[C@@H]3O[C@H](CO)[C@H](O)[C@H](O)[C@H]3O)cc(O)c12 = > 128 µg/mL
O=C(CCc1ccc(F)cc1)O[C@H]1[C@H](Oc2c(-c3ccc(O)c(O)c3)oc3cc(O)cc(O)c3c2=O)O[C@H](CO)[C@@H](O)[C@@H]1OC(=O)CCc1ccc(F)cc1 = 1 µg/mL

Items follow; give MIC for each.
1. CCn1cc(C(=O)O)c(=O)c2cc(F)c(N3CCNCC3)cc21
2. O=C(CCc1ccc(O)cc1)OC[C@H]1O[C@@H](Oc2c(-c3ccc(O)c(O)c3)oc3cc(O)cc(O)c3c2=O)[C@H](OC(=O)CCc2ccc(O)cc2)[C@@H](O)[C@H]1O
3. Cc1ccc(CCC(=O)OC[C@H]2O[C@@H](Oc3c(-c4ccc(O)c(O)c4)oc4cc(O)cc(O)c4c3=O)[C@H](O)[C@@H](O)[C@H]2O)cc1
4. Cc1ccc(CCC(=O)Oc2cc(O)c3c(=O)c(OC(=O)CCc4ccc(C)cc4)c(-c4ccc(O)c(O)c4)oc3c2)cc1

Result string:
1: > 128 µg/mL; 2: 2 µg/mL; 3: 16 µg/mL; 4: 16 µg/mL

Query string: Identify the reported MIC for the following entry. O=C(Cc1ccc(F)cc1)O[C@H]1[C@H](Oc2c(-c3ccc(O)c(O)c3)oc3cc(O)cc(O)c3c2=O)O[C@H](CO)[C@@H](O)[C@@H]1OC(=O)Cc1ccc(F)cc1
Result string: 1 µg/mL
